// data source = the supplement of paper PMC9112550

- Test system: Escherichia coli TOP10;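 also: peptides expressed intracellularly from a pBAD plasmid library in pooled LB shake-flask culture, induced with 0.3% L-arabinose, DNA abundance read by NGS, three biological replicates, DESeq2 with apeglm shrinkage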
- Assay Summary: shrunken log2 fold change of peptide-encoding DNA abundance (4.5 h post-induction vs induction); higher = less antimicrobial activity (less host growth inhibition)
- Condition Parameters: time post-induction: 4.5 h; library: site-saturation at positions 5, 18, 19, 20
Assignment: determine reported shrunken log2 fold change for the given sequences.
Please respond with just the number, no unit label.

shrunken log2 fold change for RRIRRRPPRLPRPRPRPNINPRP is -0.156

shrunken log2 fold change for RRIRARPPRLPRPRPRPPCFPRP is 0.482

shrunken log2 fold change for RRIRFRPPRLPRPRPRPTLKPRP is -0.0426

shrunken log2 fold change for RRIRARPPRLPRPRPRPTRSPRP is 0.258

shrunken log2 fold change for RRIRFRPPRLPRPRPRPIFKPRP is -0.153

shrunken log2 fold change for RRIRARPPRLPRPRPRPTDQPRP is 0.918

shrunken log2 fold change for RRIRSRPPRLPRPRPRPYGGPRP is -0.608

shrunken log2 fold change for RRIRKRPPRLPRPRPRPKNRPRP is 0.226

shrunken log2 fold change for RRIRLRPPRLPRPRPRPEWYPRP is 0.0934

shrunken log2 fold change for RRIRWRPPRLPRPRPRPNAIPRP is -0.123

shrunken log2 fold change for RRIRHRPPRLPRPRPRPSQNPRP is -0.0324

shrunken log2 fold change for RRIRHRPPRLPRPRPRPPDPPRP is 0.832

shrunken log2 fold change for RRIRLRPPRLPRPRPRPSTGPRP is -0.221

shrunken log2 fold change for RRIRLRPPRLPRPRPRPVHHPRP is -0.105

shrunken log2 fold change for RRIRPRPPRLPRPRPRPQAGPRP is 0.00187
